B1: ACBD3 (parent)
chain: YVASHKIEKEEQEKKRKEEEERRR

variants of: B1; assay: protein stability index of a GFP-peptide fusion (GPS, HEK-293T) (PSI 1-6); higher = more stable; conditions: c terminus: a fixed tail appended;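 also: lentivirally expressed fusions sorted by FACS into six bins by GFP to DsRed ratio, PSI derived from sequencing read proportions per bin multiplied by bin number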
metric name: protein stability index
// response body must contain only the number

Here are 5 variants together with their reported answers.
>>> reported_value("K6T")
2.88
>>> reported_value("R22H")
2.42
>>> reported_value("E20Q")
2.36
>>> reported_value("R24I")
2.52
>>> reported_value("E21A")
1.54

Req: State the recorded protein stability index for this entry: H5E
Resp: 4.24

Req: State the recorded protein stability index for this entry: K15W
Resp: 3.36

Req: State the recorded protein stability index for this entry: V2Q
Resp: 4.57

Req: State the recorded protein stability index for this entry: E19T
Resp: 2.57
